Data provenance is ChEMBL document CHEMBL4715878.

- assayText: in vitro
- testParameters: CD-1, mouse, liver microsomes
propertyLabel: CLint scaled at 1 h, 100 µM (L/h/kg)
Numeric only. Scale: L/h/kg

Determine from records and report CLint scaled at 1 h, 100 µM for `C[C@]12CC[C@H]3[C@@H](CCC4=CC(=O)CC[C@@]43C)[C@@H]1CC[C@@H]2O`
66.3

Determine from records and report CLint scaled at 1 h, 100 µM for `O=C(O)Cc1ccccc1Nc1c(Cl)cccc1Cl`
5.49

Determine from records and report CLint scaled at 1 h, 100 µM for `CN1CCN(CCCOc2ccc3ncnc(Nc4ccc(OCc5cccc(F)c5)c(Cl)c4)c3c2)CC1`
5.74

---

- measurementTarget: Receptor tyrosine-protein kinase erbB-2 (Homo sapiens, UniProt P04626)
- Sequence (P04626 whole entry): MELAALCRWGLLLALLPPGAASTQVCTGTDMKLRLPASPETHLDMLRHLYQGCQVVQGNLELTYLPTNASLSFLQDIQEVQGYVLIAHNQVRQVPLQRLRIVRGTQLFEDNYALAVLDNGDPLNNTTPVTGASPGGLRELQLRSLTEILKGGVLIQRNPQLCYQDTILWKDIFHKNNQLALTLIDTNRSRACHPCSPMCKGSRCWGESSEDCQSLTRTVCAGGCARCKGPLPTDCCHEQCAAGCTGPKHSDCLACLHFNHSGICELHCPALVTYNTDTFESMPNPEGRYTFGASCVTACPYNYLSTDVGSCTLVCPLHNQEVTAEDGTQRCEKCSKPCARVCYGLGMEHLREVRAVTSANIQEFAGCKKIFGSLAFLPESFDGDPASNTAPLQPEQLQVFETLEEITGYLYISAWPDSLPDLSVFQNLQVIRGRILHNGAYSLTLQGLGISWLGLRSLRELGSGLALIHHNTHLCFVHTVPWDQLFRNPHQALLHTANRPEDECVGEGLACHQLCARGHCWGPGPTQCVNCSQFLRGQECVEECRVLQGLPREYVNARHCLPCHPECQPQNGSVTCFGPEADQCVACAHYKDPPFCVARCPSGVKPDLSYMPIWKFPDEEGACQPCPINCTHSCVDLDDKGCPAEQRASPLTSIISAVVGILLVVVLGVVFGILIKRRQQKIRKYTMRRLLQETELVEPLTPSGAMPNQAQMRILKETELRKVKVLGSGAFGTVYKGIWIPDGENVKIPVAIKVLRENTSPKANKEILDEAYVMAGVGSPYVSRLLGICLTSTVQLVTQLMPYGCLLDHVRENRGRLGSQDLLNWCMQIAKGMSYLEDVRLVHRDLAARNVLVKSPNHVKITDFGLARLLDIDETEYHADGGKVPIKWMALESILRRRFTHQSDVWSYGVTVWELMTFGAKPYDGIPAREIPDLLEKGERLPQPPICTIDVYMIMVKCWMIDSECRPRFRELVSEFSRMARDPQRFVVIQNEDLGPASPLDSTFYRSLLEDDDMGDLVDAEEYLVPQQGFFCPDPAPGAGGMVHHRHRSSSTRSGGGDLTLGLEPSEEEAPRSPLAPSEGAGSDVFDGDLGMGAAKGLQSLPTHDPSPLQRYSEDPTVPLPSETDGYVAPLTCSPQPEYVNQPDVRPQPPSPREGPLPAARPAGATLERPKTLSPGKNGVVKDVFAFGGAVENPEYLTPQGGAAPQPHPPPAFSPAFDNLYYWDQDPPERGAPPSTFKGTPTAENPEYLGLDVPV
- testParameters: Sf9, human, 0.5 h
propertyLabel: activity at 10 µM (%)
Numeric only. Scale: %

// worked examples, activity at 10 µM included
INSERT INTO measurements (compoundsmiles, readoutnumber) VALUES
  ('O=C(CNCCO)Nc1ccc2ncnc(Nc3ccc(OCc4cccc(F)c4)c(Cl)c3)c2c1', -93),
  ('O=C(CN1CCOCC1)Nc1ccc2ncnc(Nc3ccc(Oc4cccc(F)c4)c(Cl)c3)c2c1', -92),
  ('O=C(CN1CCOCC1)Nc1ccc2ncnc(Nc3ccc(OCc4cccc(F)c4)c(Cl)c3)c2c1', -92);

Next, consider the following molecule.
Determine from records and report activity at 10 µM for `O=C(CN1CCOCC1)Nc1ccc2ncnc(Nc3ccc(Oc4cccc(C(F)(F)F)c4)c(Cl)c3)c2c1`
-91

---

List of IC50 tested on Receptor tyrosine-protein kinase erbB-2 (Homo sapiens, UniProt P04626).
Numeric only. Scale: nM

// worked examples, IC50 included
INSERT INTO assay_data (compoundsmiles, readoutnumber) VALUES
  ('O=C(Nc1ccc2ncnc(Nc3ccc(Oc4cccc(F)c4)c(Cl)c3)c2c1)c1ccc(CNCCO)cc1', 12),
  ('CN1CCN(CCCOc2ccc3ncnc(Nc4ccc(OCc5cccc(F)c5)c(Cl)c4)c3c2)CC1', 8.3),
  ('Cc1cccc(Oc2ccc(Nc3ncnc4ccc(NC(=O)CN5CCN(C)CC5)cc34)cc2Cl)c1', 5.4);

Send back Receptor tyrosine-protein kinase erbB-2 (Homo sapiens, UniProt P04626) IC50 of `O=C(CNCCO)Nc1ccc2ncnc(Nc3ccc(OCc4cccc(F)c4)c(Cl)c3)c2c1` only.
10.4

---

- assayText: in vitro
- testParameters: CD-1, mouse, liver microsomes
- Description: Metabolic stability in CD-1 mouse liver microsomes assessed as parent compound remaining at 100 uM measured after 60 mins by LC-MS/MS analysis
propertyLabel: remaining at 1 h, 100 µM (%)
Numeric only. Scale: %

INSERT INTO results (compoundsmiles, readoutnumber) VALUES
  ('O=C(O)Cc1ccccc1Nc1c(Cl)cccc1Cl', 102);

Determine from records and report remaining at 1 h, 100 µM for `O=C(Nc1ccc2ncnc(Nc3ccc(Oc4cccc(F)c4)c(Cl)c3)c2c1)c1ccc(CNCCO)cc1`
100

Determine from records and report remaining at 1 h, 100 µM for `CN1CCN(CCCOc2ccc3ncnc(Nc4ccc(OCc5cccc(F)c5)c(Cl)c4)c3c2)CC1`
93.5

---

- Tested on: MCF7
- assayText: Antiproliferative activity against human MCF7 cells assessed as reduction in cell viability incubated for 72 hrs by WST8 assay
- Type: functional, cell-based
- testParameters: MCF7, 72 h
So basically: is IC50 under 3 µM? Then fulfilled. Not under? Then not fulfilled.

Answered cases to consult:
INSERT INTO measurements (compound, group) VALUES
  ('CS(=O)(=O)CCNCc1ccc(-c2ccc3ncnc(Nc4ccc(OCc5cccc(F)c5)c(Cl)c4)c3c2)o1 [LAPATINIB]', 'not fulfilled'),
  ('CN(C)CC(=O)Nc1ccc2ncnc(Nc3ccc(Oc4cccc(C(F)(F)F)c4)c(Cl)c3)c2c1', 'not fulfilled'),
  ('CN1CCN(CC(=O)Nc2ccc3ncnc(Nc4ccc(OCc5cccc(F)c5)c(Cl)c4)c3c2)CC1', 'fulfilled'),
  ('O=C(CN1CCOCC1)Nc1ccc2ncnc(Nc3ccc(OCc4cccc(F)c4)c(Cl)c3)c2c1', 'not fulfilled'),
  ('O=C(Nc1ccc2ncnc(Nc3ccc(Oc4cccc(F)c4)c(Cl)c3)c2c1)c1ccc(CNCCO)cc1', 'not fulfilled'),
  ('CN(C)CC(=O)Nc1ccc2ncnc(Nc3ccc(Oc4cccc(F)c4)c(Cl)c3)c2c1', 'fulfilled'),
  ('CN1CCN(CCCOc2ccc3ncnc(Nc4ccc(Oc5cccc(F)c5)c(Cl)c4)c3c2)CC1', 'fulfilled'),
  ('Cc1cccc(Oc2ccc(Nc3ncnc4ccc(NC(=O)CNCCO)cc34)cc2Cl)c1', 'not fulfilled');

Continue with the compound presented below.
# strict comparison: is reported IC50 < 3 µM? input = `Cc1cccc(Oc2ccc(Nc3ncnc4ccc(NC(=O)CN5CCN(C)CC5)cc34)cc2Cl)c1`
fulfilled
